So I've got a bunch of compounds here, and I need their MICUTBLP [MICcombo] values.
System: E. coli ATCC 25922
Format: cell-based, Escherichia coli
Conditions: UTBLP in combination with niclosamide
Procedure: The synergy of the UTBLPs with various antibiotics was assessed using checkerboard assay as previously described. […] Growth in the form of turbidity was confirmed using an EMax Plus microplate reader (Molecular Devices, Union City, CA, USA) at 590 nm. […] The FIC value is calculated by dividing the MIC of the agents in combination by the MIC of the agent alone. […]
Non-standard residues stand in square brackets, D forms with d. Residues, ends and D or L forms follow the SMILES beside them. *: point of attachment. Lys(Me3) = C[N+](C)(C)CCCC[C@H](N)C(=O)O; Lys(Me2) = CN(C)CCCC[C@H](N)C(=O)O; Lys(Me) = CNCCCC[C@H](N)C(=O)O; Octanoyl = CCCCCCCC(=O)*
Give the value in µg/mL but do not write µg/mL after it.

Request: Look up MICUTBLP [MICcombo] for this compound: CCCCCCCC(=O)NCCCC[C@H](NC(=O)CCCCCCC)C(=O)N[C@@H](CCCCNC)C(=O)N[C@@H](CCCCNC)C(=O)N[C@@H](CCCCNC)C(=O)N[C@@H](CCCCNC)C(N)=O [UTBLP 6] (Octanoyl-K(Octanoyl)[Lys(Me)][Lys(Me)][Lys(Me)][Lys(Me)]-NH2)
Result: 1

Request: Bench note: what MICUTBLP [MICcombo] did CCCCCCCC(=O)N[C@@H](CCCCN(C)C)C(=O)NCCCN(CCCNC(=O)[C@H](CCCCN(C)C)NC(=O)CCCCCCC)CC(=O)N[C@@H](CCCCN(C)C)C(N)=O [UTBLP 3] show?
Result: 16

Request: Which measured MICUTBLP [MICcombo] value corresponds to CCCCCCCC(=O)NCCCC[C@H](NC(=O)CCCCCCC)C(=O)N[C@@H](CCCC[N+](C)(C)C)C(=O)N[C@@H](CCCC[N+](C)(C)C)C(=O)N[C@@H](CCCC[N+](C)(C)C)C(=O)N[C@@H](CCCC[N+](C)(C)C)C(N)=O [UTBLP 8] (Octanoyl-K(Octanoyl)[Lys(Me3)][Lys(Me3)][Lys(Me3)][Lys(Me3)]-NH2) ?
Result: 8

Request: Please give the measured MICUTBLP [MICcombo] for this compound: CCCCCCCC(=O)NCCCC[C@H](NC(=O)CCCCCCC)C(=O)N[C@@H](CCCCN)C(=O)N[C@@H](CCCCN)C(=O)N[C@@H](CCCCN)C(=O)N[C@@H](CCCCN)C(N)=O [UTBLP 5] (Octanoyl-K(Octanoyl)KKKK-NH2)
Result: 0.5

Request: Given CCCCCCCC(=O)N[C@@H](CCCCNC)C(=O)NCCCN(CCCNC(=O)[C@H](CCCCNC)NC(=O)CCCCCCC)CC(=O)N[C@@H](CCCCNC)C(N)=O [UTBLP 2] , state its recorded MICUTBLP [MICcombo].
Result: 4

Request: What MICUTBLP [MICcombo] value was documented for this compound, CCCCCCCC(=O)NCCCC[C@H](NC(=O)CCCCCCC)C(=O)N[C@@H](CCCCN(C)C)C(=O)N[C@@H](CCCCN(C)C)C(=O)N[C@@H](CCCCN(C)C)C(=O)N[C@@H](CCCCN(C)C)C(N)=O [UTBLP 7] (Octanoyl-K(Octanoyl)[Lys(Me2)][Lys(Me2)][Lys(Me2)][Lys(Me2)]-NH2) ?
Result: 4

Request: So what does the record say about MICUTBLP [MICcombo] for CCCCCCCC(=O)N[C@@H](CCCCN)C(=O)NCCCN(CCCNC(=O)[C@H](CCCCN)NC(=O)CCCCCCC)CC(=O)N[C@@H](CCCCN)C(N)=O [UTBLP 1] ?
Result: 8
